Values from the NIST ThermoML archive (doi:10.1016/j.jct.2008.12.018)

- assayDetails: activity coefficient (dimensionless); of the first substance listed, at infinite dilution; xn = mol fraction of the nth substance listed
- assayContext: 328.15 K; Liquid; Chromatography; x1 = 0
Output True for records whose activity coefficient is lower than 10, False for records at or above 10.

> print(dat)
                                    compound  labelvalue
 1  Cc1cccc(C)c1 [1,3-dimethylbenzene] + CCCCn1cc[n+](C)c1.N#C[S-]        True
 2  CO [methanol] + CCCCn1cc[n+](C)c1.N#C[S-]        True
 3  CCCCCCCCC [nonane] + CCCCn1cc[n+](C)c1.N#C[S-]       False
 4  C1CCCCCC1 [cycloheptane] + CCCCn1cc[n+](C)c1.N#C[S-]       False
 5  C1CCCCCCC1 [cyclooctane] + CCCCn1cc[n+](C)c1.N#C[S-]       False
 6  Cc1ccccc1 [toluene] + CCCCn1cc[n+](C)c1.N#C[S-]        True
 7  C#CCCC [1-pentyne] + CCCCn1cc[n+](C)c1.N#C[S-]        True
 8  C=CCCCCC [1-heptene] + CCCCn1cc[n+](C)c1.N#C[S-]       False
 9  CCCCCCCCCC [decane] + CCCCn1cc[n+](C)c1.N#C[S-]       False
10  CCCCO [butan-1-ol] + CCCCn1cc[n+](C)c1.N#C[S-]        True
11  CCCCCCCC [octane] + CCCCn1cc[n+](C)c1.N#C[S-]       False
12  c1ccsc1 [thiophene] + CCCCn1cc[n+](C)c1.N#C[S-]        True
13  CCO [ethanol] + CCCCn1cc[n+](C)c1.N#C[S-]        True
14  COC(C)(C)C [2-methoxy-2-methylpropane] + CCCCn1cc[n+](C)c1.N#C[S-]       False
15  Cc1ccccc1C [1,2-dimethylbenzene] + CCCCn1cc[n+](C)c1.N#C[S-]        True
16  C#CCCCC [1-hexyne] + CCCCn1cc[n+](C)c1.N#C[S-]        True
17  C=CCCC [1-pentene] + CCCCn1cc[n+](C)c1.N#C[S-]       False

====

- assayDetails: activity coefficient (dimensionless); of the first substance listed, at infinite dilution; xn = mol fraction of the nth substance listed
- assayContext: 298.15 K; Liquid; Chromatography; x1 = 0
# activity coefficient per entry
measuredEndpoint: activity coefficient

> print(dat)
                                    molecule  numericreadout
 1  CCCCCCCC [octane] + CCCCn1cc[n+](C)c1.N#C[S-]             350
 2  C1CCCCC1 [cyclohexane] + CCCCn1cc[n+](C)c1.N#C[S-]            62.3
 3  C#CCCCCC [1-heptyne] + CCCCn1cc[n+](C)c1.N#C[S-]            9.88
 4  CCCCCCCCCC [decane] + CCCCn1cc[n+](C)c1.N#C[S-]             628
 5  Cc1ccccc1C [1,2-dimethylbenzene] + CCCCn1cc[n+](C)c1.N#C[S-]            4.58
 6  C1CCCCCC1 [cycloheptane] + CCCCn1cc[n+](C)c1.N#C[S-]            56.6
 7  C1CCCC1 [cyclopentane] + CCCCn1cc[n+](C)c1.N#C[S-]            46.9
 8  CCCCCCCCC [nonane] + CCCCn1cc[n+](C)c1.N#C[S-]             459
 9  COC(C)(C)C [2-methoxy-2-methylpropane] + CCCCn1cc[n+](C)c1.N#C[S-]            12.8
10  C1CCCCCCC1 [cyclooctane] + CCCCn1cc[n+](C)c1.N#C[S-]              70
11  C=CCCC [1-pentene] + CCCCn1cc[n+](C)c1.N#C[S-]            52.3
12  C=CCCCC [hex-1-ene] + CCCCn1cc[n+](C)c1.N#C[S-]            61.6
13  C#CCCCCCC [1-octyne] + CCCCn1cc[n+](C)c1.N#C[S-]            15.2
14  CCc1ccccc1 [ethylbenzene] + CCCCn1cc[n+](C)c1.N#C[S-]            5.86
15  c1ccsc1 [thiophene] + CCCCn1cc[n+](C)c1.N#C[S-]            1.21
16  CCO [ethanol] + CCCCn1cc[n+](C)c1.N#C[S-]           0.743
17  CCCCCCC [heptane] + CCCCn1cc[n+](C)c1.N#C[S-]             281
18  Cc1cccc(C)c1 [1,3-dimethylbenzene] + CCCCn1cc[n+](C)c1.N#C[S-]            5.92
